Where do these numbers come from? They come from patent US20200376136A1.

Below: a set of entries, each annotated with reported EC50.
Target: T1, human CD3 (human, UniProt P07766 23-207; P04234 22-171)
T1 construct: As expressed on Jurkat cells or human T cells within the T cell receptor complex; also called hCD3
T1 sequence (P07766 23-207 limits assumed, chain 1 of 2): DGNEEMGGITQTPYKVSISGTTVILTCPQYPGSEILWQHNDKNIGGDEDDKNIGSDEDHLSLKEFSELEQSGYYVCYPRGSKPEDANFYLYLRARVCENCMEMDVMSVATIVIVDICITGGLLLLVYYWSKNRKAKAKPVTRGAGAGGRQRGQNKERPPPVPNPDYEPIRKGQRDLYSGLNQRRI
T1 sequence (P04234 22-171 limits assumed, chain 2 of 2): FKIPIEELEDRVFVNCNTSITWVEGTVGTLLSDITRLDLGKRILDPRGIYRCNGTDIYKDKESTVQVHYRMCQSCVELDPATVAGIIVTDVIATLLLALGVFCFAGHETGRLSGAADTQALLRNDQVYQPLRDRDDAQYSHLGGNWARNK
Assay: FACS titration on Jurkat cells (human CD3)
All answers are understood in nM, so give the number only.

The examples below pair each entry with its known result.
binder	EC50 (nM)
BSSTEAP2/CD3-006 (bispecific antibody, V domains shown) VH 1: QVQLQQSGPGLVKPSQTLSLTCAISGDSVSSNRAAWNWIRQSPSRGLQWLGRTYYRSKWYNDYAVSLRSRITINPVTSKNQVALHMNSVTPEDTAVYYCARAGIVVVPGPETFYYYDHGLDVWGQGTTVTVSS VH 2: EVQLVESGGGLVQPGRSLRLSCVASGFTFDDYSMHWVRQAPGKGLEWVSGISWNSGSKDYADSVKGRFTISRDNAKNSLYLQMNSLRAEDTALYYCAKYGSGYGKFYHYGLDVWGQGTTVTVSS VL: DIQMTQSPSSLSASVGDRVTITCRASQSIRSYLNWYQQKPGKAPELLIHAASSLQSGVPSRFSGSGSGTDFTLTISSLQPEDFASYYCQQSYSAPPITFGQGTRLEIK	3.98
BSSTEAP2/CD3-007 (bispecific antibody, V domains shown) VH 1: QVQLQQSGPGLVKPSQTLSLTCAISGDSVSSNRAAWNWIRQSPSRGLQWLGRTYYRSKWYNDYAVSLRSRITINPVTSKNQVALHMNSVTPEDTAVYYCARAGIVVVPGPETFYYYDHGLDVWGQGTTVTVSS VH 2: EVQLVESGGGLVQPGRSLRLSCAASGFTFADYTMHWVRQAPGKGLEWVSDISWNSGSIAYADSVKGRFTISRDNAKNSLYLQMNSLRTEDTAFYYCAKDSRGYGHYKYLGLDVWGQGTTVTVSS VL: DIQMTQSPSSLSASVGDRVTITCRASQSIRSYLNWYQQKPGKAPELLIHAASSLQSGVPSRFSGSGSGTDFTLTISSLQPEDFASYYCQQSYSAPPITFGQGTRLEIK	0.615

API: the following record is the query input.
EC50 recorded for this binder, BSSTEAP2/CD3-005 (bispecific antibody, IgG4, V domains shown) VH 1: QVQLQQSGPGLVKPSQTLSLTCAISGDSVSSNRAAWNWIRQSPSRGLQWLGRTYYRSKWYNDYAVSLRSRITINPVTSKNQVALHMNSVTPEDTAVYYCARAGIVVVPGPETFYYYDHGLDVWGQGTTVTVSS VH 2: QVQLVESGGGLVHPGRSLRLSCAASGFKFDDYTMHWVRQAPGKGLEWVSDISWNSGSKGYADSVKGRFTISRDNAKDSLYLQMDSLRAADTAFYYCAKDKSGYGHFYYYAMDVWGQGTTVTVSS VL: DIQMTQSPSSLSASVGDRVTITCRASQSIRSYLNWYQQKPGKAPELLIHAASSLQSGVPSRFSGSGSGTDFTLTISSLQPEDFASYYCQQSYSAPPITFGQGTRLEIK , is 14.1
